# credit: patent US7157430B2

molecular target: MCH-5 (Homo sapiens, UniProt Q14790); experiment: Dissociation constant Ki and irreversible rate constant k3 for irreversible inhibitors, Mch5; details: continuous assay 60 min, reaction initiated by adding enzyme
Sequence (Q14790 217-374 limits assumed, species assumed): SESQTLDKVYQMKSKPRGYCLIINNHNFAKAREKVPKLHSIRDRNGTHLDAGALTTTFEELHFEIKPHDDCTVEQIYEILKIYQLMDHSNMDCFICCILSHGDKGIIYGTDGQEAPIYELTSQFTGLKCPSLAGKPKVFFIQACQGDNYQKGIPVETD
Sequence (Q14790 385-479 limits assumed, species assumed): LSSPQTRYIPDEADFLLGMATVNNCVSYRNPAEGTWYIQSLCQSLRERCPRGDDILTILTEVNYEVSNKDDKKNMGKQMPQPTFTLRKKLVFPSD
reported_metric: Ki (nM)

Sample answers from the record:
>>> df
                                   molecule  reported_metric  value_observed
0  CC(C)C[C@H](NC(=O)COc1c(C(=O)O)ccc2ccccc12)C(=O)N[C@@H](CC(=O)O)C(=O)COC(=O)c1c(Cl)cccc1Cl               Ki              89
1  O=C(O)CC(NC(=O)[C@@H]1Cc2ccccc2CN1C(=O)COc1cccc2ccccc12)C(=O)CF (mixture of isomers)               Ki             467
2  CC(C)C[C@H](NC(=O)COc1ccccc1-c1ccccc1)C(=O)N[C@@H](CC(=O)O)C(=O)COC(=O)c1c(Cl)cccc1Cl               Ki             128
3  CC(C)[C@H](NC(=O)COc1cccc2ccccc12)C(=O)N[C@@H](CC(=O)O)C(=O)COc1ccc(F)cc1F               Ki            1300

(I) CC(C)[C@H](NC(=O)COc1cccc2ccccc12)C(=O)N[C@@H](CC(=O)O)C(=O)COP(C)(=O)c1ccccc1 (stereo partly drawn)
(II) CC(C)[C@H](NC(=O)COc1cccc2ccccc12)C(=O)N[C@@H](CC(=O)O)C(=O)COP(C)(C)=O
// select label with min value of measured Ki from [ I , II ] Write the label of whichever entry you select. I
